Molecular target: Voltage-dependent N-type calcium channel subunit alpha-1B (Rattus norvegicus)
Sequence (Q02294 whole entry): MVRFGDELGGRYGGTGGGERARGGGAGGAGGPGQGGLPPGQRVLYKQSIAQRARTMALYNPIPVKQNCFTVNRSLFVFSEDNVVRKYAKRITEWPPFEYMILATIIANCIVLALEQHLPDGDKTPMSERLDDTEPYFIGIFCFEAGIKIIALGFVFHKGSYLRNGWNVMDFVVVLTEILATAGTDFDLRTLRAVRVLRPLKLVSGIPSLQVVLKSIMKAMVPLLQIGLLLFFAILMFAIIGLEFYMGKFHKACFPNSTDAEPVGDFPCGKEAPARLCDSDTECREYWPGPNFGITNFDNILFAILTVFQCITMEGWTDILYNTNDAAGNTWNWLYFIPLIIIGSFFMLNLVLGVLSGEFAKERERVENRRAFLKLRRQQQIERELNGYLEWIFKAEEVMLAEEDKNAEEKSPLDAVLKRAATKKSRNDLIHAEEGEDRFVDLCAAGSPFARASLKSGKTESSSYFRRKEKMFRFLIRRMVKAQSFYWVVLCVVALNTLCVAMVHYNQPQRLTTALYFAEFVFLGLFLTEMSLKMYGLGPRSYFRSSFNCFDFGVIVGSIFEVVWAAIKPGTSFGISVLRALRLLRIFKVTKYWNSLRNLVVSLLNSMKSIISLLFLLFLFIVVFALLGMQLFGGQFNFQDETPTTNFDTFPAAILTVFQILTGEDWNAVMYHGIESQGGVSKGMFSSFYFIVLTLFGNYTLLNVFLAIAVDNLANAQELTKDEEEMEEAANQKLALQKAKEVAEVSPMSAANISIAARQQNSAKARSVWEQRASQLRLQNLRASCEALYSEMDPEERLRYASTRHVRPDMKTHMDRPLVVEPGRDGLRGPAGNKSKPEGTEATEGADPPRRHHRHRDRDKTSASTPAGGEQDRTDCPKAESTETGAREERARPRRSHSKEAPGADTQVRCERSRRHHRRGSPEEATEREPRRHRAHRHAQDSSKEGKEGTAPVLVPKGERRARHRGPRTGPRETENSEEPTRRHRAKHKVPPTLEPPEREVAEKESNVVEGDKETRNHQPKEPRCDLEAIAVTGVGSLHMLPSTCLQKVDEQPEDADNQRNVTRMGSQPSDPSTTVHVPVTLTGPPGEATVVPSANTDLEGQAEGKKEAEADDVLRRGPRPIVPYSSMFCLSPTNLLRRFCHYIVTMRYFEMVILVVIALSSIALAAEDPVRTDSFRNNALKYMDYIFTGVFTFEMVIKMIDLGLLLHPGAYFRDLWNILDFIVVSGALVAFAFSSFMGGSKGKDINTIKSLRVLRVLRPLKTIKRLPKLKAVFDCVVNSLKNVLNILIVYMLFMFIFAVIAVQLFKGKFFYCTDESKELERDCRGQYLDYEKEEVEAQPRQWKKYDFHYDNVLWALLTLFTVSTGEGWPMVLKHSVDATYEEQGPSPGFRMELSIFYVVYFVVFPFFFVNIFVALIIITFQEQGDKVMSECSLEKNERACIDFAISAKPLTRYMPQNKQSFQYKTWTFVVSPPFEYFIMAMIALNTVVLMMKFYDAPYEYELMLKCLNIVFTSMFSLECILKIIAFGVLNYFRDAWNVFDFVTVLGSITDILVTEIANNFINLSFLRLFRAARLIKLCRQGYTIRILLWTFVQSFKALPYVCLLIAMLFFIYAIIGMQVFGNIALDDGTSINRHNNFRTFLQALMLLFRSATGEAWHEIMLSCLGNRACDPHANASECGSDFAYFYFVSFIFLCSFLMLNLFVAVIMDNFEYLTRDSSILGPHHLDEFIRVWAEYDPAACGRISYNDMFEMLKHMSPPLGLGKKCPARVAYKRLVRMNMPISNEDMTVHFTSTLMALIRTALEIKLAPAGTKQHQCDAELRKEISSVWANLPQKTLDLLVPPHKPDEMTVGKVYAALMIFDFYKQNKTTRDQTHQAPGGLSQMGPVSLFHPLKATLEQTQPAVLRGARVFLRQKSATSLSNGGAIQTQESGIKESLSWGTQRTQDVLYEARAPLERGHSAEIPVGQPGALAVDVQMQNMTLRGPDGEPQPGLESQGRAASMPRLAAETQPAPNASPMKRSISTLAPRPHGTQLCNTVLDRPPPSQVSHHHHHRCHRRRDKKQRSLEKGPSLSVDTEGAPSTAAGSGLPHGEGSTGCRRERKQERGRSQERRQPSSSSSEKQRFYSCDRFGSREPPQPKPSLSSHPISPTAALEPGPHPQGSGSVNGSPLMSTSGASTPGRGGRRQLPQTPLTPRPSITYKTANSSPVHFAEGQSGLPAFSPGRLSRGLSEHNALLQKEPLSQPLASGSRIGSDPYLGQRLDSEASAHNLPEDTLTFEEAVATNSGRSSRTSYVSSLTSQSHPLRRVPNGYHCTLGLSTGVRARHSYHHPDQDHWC
Assay: Inhibition of rat neuronal Cav2.2 channel
# note: exactly 20 µM is not below, so it is n; use y for EC50 strictly under it

Query: Lab note: EC50 threshold 20 µM. Does this compound come in strictly under it? `NC(N)=NCCCOc1ccc(CNCC(c2ccccc2)c2ccccc2)cc1`
Result: y

Query: Lab note: EC50 threshold 20 µM. Does this compound come in strictly under it? `NCCCOc1ccc(CNCC(c2ccccc2)c2ccccc2)cc1`
Result: n

Query: Lab note: EC50 threshold 20 µM. Does this compound come in strictly under it? `NCCCOc1ccc(CNc2nc3ccc(Oc4ccccc4)cc3s2)cc1`
Result: n

Query: Lab note: EC50 threshold 20 µM. Does this compound come in strictly under it? `NCCCOc1ccccc1C(=O)N(Cc1ccc(OCCCN=C(N)N)cc1)c1nc2ccc(Oc3ccccc3)cc2s1`
Result: y

Query: Lab note: EC50 threshold 20 µM. Does this compound come in strictly under it? `NCCCOc1ccc(CN(C(=O)c2ccccc2OCCCN)c2nc3ccc(Oc4ccc(O)cc4)cc3s2)cc1`
Result: y

Query: Lab note: EC50 threshold 20 µM. Does this compound come in strictly under it? `NC(N)=NCCCOc1ccccc1C(=O)Nc1nc2ccc(Oc3ccccc3)cc2s1`
Result: n

Query: Lab note: EC50 threshold 20 µM. Does this compound come in strictly under it? `NCCCOc1ccc(CNc2ccc(Oc3ccccc3)cc2)cc1`
Result: n

Query: Lab note: EC50 threshold 20 µM. Does this compound come in strictly under it? `NC(N)=NCCCOc1ccc(CNc2ccc(Oc3ccccc3)cc2)cc1`
Result: n

Query: Lab note: EC50 threshold 20 µM. Does this compound come in strictly under it? `NCCCOc1ccccc1C(=O)Nc1nc2ccc(Oc3ccccc3)cc2s1`
Result: n

Query: Lab note: EC50 threshold 20 µM. Does this compound come in strictly under it? `NCCCOc1ccccc1C(=O)N(Cc1ccc(OCCCN=C(N)N)cc1)c1nc2ccc(Oc3ccc(O)cc3)cc2s1`
Result: y

Query: Lab note: EC50 threshold 20 µM. Does this compound come in strictly under it? `NC(N)=NCCCOc1ccc(CNc2nc3ccc(Oc4ccccc4)cc3s2)cc1`
Result: y

Query: Lab note: EC50 threshold 20 µM. Does this compound come in strictly under it? `NCCCOc1ccc(CNC(c2ccccc2)c2ccccc2)cc1`
Result: n

Query: Lab note: EC50 threshold 20 µM. Does this compound come in strictly under it? `NC(N)=NCCCOc1ccc(CNC(c2ccccc2)c2ccccc2)cc1`
Result: n

----------
Biological target: Voltage-dependent N-type calcium channel subunit alpha-1B (Rattus norvegicus) (UniProt Q02294)
Sequence (Q02294 whole entry, looked up): as the sequence (Q02294 whole entry) above
Assay: Inhibition of rat neuronal Cav2.2 channel
The source made the active and inactive calls. The calls are words filed in the database; no cut-off is given here.
Experimental readout: Activity

[N-]=[N+]=NCCCOc1ccc(CNc2nc3ccc(Oc4ccccc4)cc3s2)cc1    inactive
CC(C)(C)OC(=O)NCCCOc1ccc(CNc2nc3ccc(Oc4ccccc4)cc3s2)cc1    inactive
ClCCCOc1ccc(CNc2nc3ccc(Oc4ccccc4)cc3s2)cc1    inactive
Oc1ccc(CNc2nc3ccc(Oc4ccccc4)cc3s2)cc1    inactive
